target: T1, Human TNFa N-his trimers (His-tagged TNF, produced at ESBATech) (human, UniProt P01375 77-233); assay: SPR (BIAcore T100), His-tagged human TNF captured on NTA chip, scFv as analyte
T1 construct: Captured as trimers on a Ni-NTA sensor chip by the N-terminal His tags in the Biacore assay of the general methods; also called human TNFα; human TNF alpha; not shown: N-terminal His tag
T1 sequence (P01375 77-233 limits assumed): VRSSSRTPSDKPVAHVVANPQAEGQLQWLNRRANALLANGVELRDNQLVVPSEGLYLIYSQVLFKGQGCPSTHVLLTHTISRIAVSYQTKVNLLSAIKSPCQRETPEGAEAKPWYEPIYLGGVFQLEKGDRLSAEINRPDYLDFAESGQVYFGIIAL
Reported pKd by item:
In plain terms, pKd is the concentration in mol/L turned into minus its base-10 logarithm.

# annotated cases, reported pKd shown
>>> value("EP6_max (scFv, scFv NH2-VL-(GGGGS)4-VH-COOH; also called 674) scFv: EIVMTQSPSTLSASVGDRVIITCQASESIYSGLAWYQQKPGKAPKLLIYQASTLASGVPSRFSGSGSGTDFTLAISSLQPDDFATYYCQQGFGTSNVENPFGQGTKLTVLGGGGGSGGGGSGGGGSGGGGSEVQLVESGGGLVQPGGSLRLSCTVSGFSLSRYGVSWVRQAPGKGLEWVGTIGEAGRAYYANWARSRSTISRDTSKNTVYLQMNSLRAEDTAVYYCARGEVFNNGWGAFNIWGQGTLVTVSS")
9.29
>>> value("EP15_min (scFv, scFv NH2-VL-(GGGGS)4-VH-COOH; also called 1073) scFv: EIVMTQSPSTLSASVGDRVIITCQASENIYTSLAWYQQKPGKAPKLLIYSASTLASGVPSRFSGSGSGAEFTLTISSLQPDDFATYYCQQGFATSNVENPFGQGTKLTVLGGGGGSGGGGSGGGGSGGGGSEVQLVESGGGLVQPGGSLRLSCAASGFTFSRYGVSWVRQAPGKGLEWVSAIGETGRAYYANWAKSRFTISRDNSKNTLYLQMNSLRAEDTAVYYCAKGEEFNNGWGAFNIWGQGTLVTVSS")
6.58

Query string: Fill in the blank: the reported pKd of EP19_max (scFv, also called 1007; EP19maxmod) scFv: EIVMTQSPSTLSASVGDRVIITCQASDNIYRGLAWYQQKPGKAPKLLIYDASTLQSGVPSRFSGSGSGTQFTLTISSLQPDDFATYYCLGVYGYSSDDGAAFGQGTKLTVLGGGGGSGGGGSGGGGSGGGGSEVQLVESGGGLVQPGGSLRLSCTVSGFSLNSNEISWVRQAPGKGLEWVGYIGNGGMTHYASWAKGRFTISRDTSKNTVYLQMNSLRAEDTAVYYCASSVEYTDLYYLNIWGQGTLVTVSS is ____.
Result string: 8.54
